system: MDA-MB-435 melanoma; test: NCI-60 one-dose screen, 48 h (100 = growth as untreated, 0 = no growth, -100 = all killed); details: 10 µM unless noted
About 83,000 compounds went through this panel and 20% of them were active in at least one assay; those are over-represented in the sample as a whole.
Reported property: growth (%)
// return numeric value only (unit: %, not printed)

Exercise: Endpoint output: growth of CCCSc1nnc(-c2c(C)nc3sccn23)o1 . Value?
Key: 105

Exercise: Also check O=C(NNC(=O)c1ccc(OCc2nc3ccc(Cl)cc3[nH]2)cc1)Nc1ccc(Cl)c(Cl)c1
Key: 26.7

Exercise: And for CCCCNc1ccc2c3c(cccc13)C(=O)N(c1cccc(-c3nn(-c4ccccc4)cc3-c3nc4ccccc4s3)c1)C2=O ?
Key: 106

Exercise: Same read-out for Cn1cc(-c2cc(N)n3nc(-c4c[nH]c5ccc(Cl)cc45)cc3n2)c2cccnc21 ?
Key: -84.2

Exercise: Another compound to check: COc1ccc(Nc2nnc(-c3c[nH]c4ccccc34)o2)cc1
Key: 81.9

Exercise: Next up: Cc1cc(Cl)ccc1NC(=O)Nc1ccc(-c2ccc3c(c2)NC(=O)/C3=C\c2ccc[nH]2)cc1
Key: 98.6

Exercise: Another compound to look at: O=C1CCC(N2C(=O)c3cccc(NCCOCCOCCOCCC(=O)NCCCC(=O)NC(c4ccc5c(c4)OCO5)c4cc(Cl)c5cccnc5c4O)c3C2=O)C(=O)C1 (stereo not drawn)
Key: 47.4

Exercise: Moving on to the next compound: O=C(CSc1nc2c(c(=O)[nH]1)CCCC2)Nc1ccccc1C(=O)O
Key: 109

Exercise: Follow-up entry: NC(=O)c1ccc(-c2ccc3ncnc(N4CCc5cc(F)c(Cl)cc54)c3c2)cn1
Key: 95.9

Exercise: Do the same for Cc1ccc(C(=O)Nc2cc(-c3ccncc3)cc(C(F)(F)F)c2)cc1C#Cc1cnc2cccnn12 please
Key: 33.9

Exercise: And then Cc1nn(-c2ccccc2)c2nc(C)n(C(=O)N/N=C/c3ccccc3)c(=O)c12 , what is it?
Key: 102

Exercise: Same question, COc1ccc(-c2cc(-c3cc(OC)c(OC)c(OC)c3)[nH]c(=O)c2C#N)cc1 this time
Key: 73.6

Exercise: Moving on to the next compound: O=c1[nH]c2ccccc2cc1COc1ccc(Nc2nccc(-c3ccc(Cl)cc3)n2)cc1
Key: 102

Exercise: Could you do the same for COc1ccc(C(=O)/C=C/c2ccc3c(c2)OCCO3)cc1S(N)(=O)=O , please?
Key: 87.8

Exercise: Same read-out for C[C@@H]1[C@H]2C[C@@H](C[C@H]1NCc1nc3ccccc3n1C1CCCCCC1)C2(C)C ?
Key: 73.6

Exercise: Param item: COc1ccc(N=Nc2c(N)nn3c(-c4cc5ccccc5oc4=O)ccnc23)cc1
Key: 75.5

Exercise: Item: CN(C)c1nc(NCCNS(=O)(=O)c2ccc(C(=O)/C=C/c3ccc(F)cc3)cc2)nc(N2CCOCC2)n1
Key: 3.15

Exercise: Now consider COc1cc(C2CC(c3ccc(C(F)(F)F)cc3)=Nc3c(N)nc(N)nc3N2)ccc1Oc1nc(Nc2ccc(F)cc2)nc(N(C)C)n1 (stereo not drawn) and answer again.
Key: 59.7

* * *

test system: PC-3 prostate; test: NCI-60 one-dose screen, 48 h (100 = growth as untreated, 0 = no growth, -100 = all killed); settings: 10 µM unless noted
This is part of a sample that, as a whole, favours compounds with a hit. Of some 83,000 tested, about 20% had one in any assay. Calls of active or inactive are those of the source. The calls were made as follows: active = growth percent below 10; inactive = the rest.
Reported property: growth

Exercise: Give the measured growth of COc1ccc(C(=O)NNC(=O)CSc2nc3sc4c(c3c(=O)n2-c2ccc(Cl)cc2)CCCC4)cc1 .
Key: 80.6% (inactive)

Exercise: Follow-up entry: O=C1NC(=NC23CC4CC(CC(C4)C2)C3)N/C1=C\c1ccc2ncccc2c1
Key: -48.1% (active)

Exercise: Then this compound: COc1ccc2[nH]c(O)c(N=Nc3nc(-c4ccc(Cl)cc4)cs3)c2c1
Key: -10.5% (active)

Exercise: What do you have for CCCn1c(NC(=O)c2cccc(C(N)=O)c2)nc2cc(CN3CCCCC3)ccc21 ?
Key: 77% (inactive)

Exercise: // query: O=C(N/N=C/c1ccc(Br)o1)c1[nH]c2ccc(Br)cc2c1-c1ccccc1
Key: 7.74% (active)

Exercise: What do you get for CCOc1ccccc1[C@H]1C(C(=O)c2ccc(Cl)cc2)C2(N[C@@H]1c1ccccc1)C(=O)Nc1ccc(Br)cc12 (some centres undefined) ?
Key: 5.34% (active)

Exercise: Another compound to look at: CS(=O)(=O)Nc1cncc(-c2ccc3ncnc(NCc4ccccc4)c3c2)c1
Key: 42.1% (inactive)

Exercise: Do the same for Cn1cc(-c2cc(N)n3nc(-c4c[nH]c5ccccc45)cc3n2)c2ccccc21 please
Key: -50.2% (active)

Exercise: Query O=C1N/C(=N\c2nccs2)S/C1=C\c1ccc([N+](=O)[O-])cc1 next
Key: 17.6% (inactive)
